Values were extracted from the supplement of paper PMC6555819.

System: PPARg:RXRa DBDmut IVT, anti-RXR (DBD mutation: RXRa K156A/R161A, NR concentration 270 nM, RXRa partner concentration 90 nM)
Assay: PBM binding z-score (relative to random genomic background probes); higher = stronger binding; sequences stand for … in GC…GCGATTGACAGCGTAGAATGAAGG
Would you mind labelling by PBM binding z-score? At or over 1 is TRUE, under is FALSE.

Examples from the recorded data:
| sequence_content | category_label |
| --- | --- |
| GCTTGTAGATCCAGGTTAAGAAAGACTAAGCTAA | TRUE |
| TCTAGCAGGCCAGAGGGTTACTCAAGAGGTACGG | FALSE |
| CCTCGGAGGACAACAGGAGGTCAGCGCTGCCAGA | FALSE |

Does PBM binding z-score meet or surpass 1 for "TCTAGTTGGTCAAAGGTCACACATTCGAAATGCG" ? TRUE

Does PBM binding z-score meet or surpass 1 for "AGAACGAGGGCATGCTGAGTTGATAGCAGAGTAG" ? TRUE

Does PBM binding z-score meet or surpass 1 for "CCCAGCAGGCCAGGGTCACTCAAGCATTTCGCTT" ? FALSE

Does PBM binding z-score meet or surpass 1 for "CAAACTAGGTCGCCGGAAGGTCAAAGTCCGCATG" ? TRUE

Does PBM binding z-score meet or surpass 1 for "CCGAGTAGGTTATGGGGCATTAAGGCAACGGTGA" ? TRUE
